// reported inhibition for each item listed
# assay-system: Histone deacetylase 8 (Homo sapiens) (UniProt Q9BY41)
# Sequence (whole entry): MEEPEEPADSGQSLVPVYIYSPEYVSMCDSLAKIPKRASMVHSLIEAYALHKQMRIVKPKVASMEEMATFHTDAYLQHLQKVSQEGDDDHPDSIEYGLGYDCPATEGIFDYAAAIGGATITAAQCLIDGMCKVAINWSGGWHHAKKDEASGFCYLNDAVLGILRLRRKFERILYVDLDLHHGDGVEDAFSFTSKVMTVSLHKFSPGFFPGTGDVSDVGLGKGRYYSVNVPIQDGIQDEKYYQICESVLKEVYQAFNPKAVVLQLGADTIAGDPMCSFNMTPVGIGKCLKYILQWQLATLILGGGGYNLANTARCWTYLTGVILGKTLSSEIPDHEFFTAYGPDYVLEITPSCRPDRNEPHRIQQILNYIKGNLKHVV
# experiment: Inhibition of His-tagged HDAC8 (unknown origin) expressed in Escherichia coli BL21(DE3) at 10 uM after 60 mins by MALDI mass spectrometry
readout-kind: inhibition (%)

>  <test-smiles>
Nc1nc2ncc(CNc3ccc(C(=O)N[C@@H](CCC(=O)NO)C(=O)O)cc3)nc2c(=O)[nH]1

>  <bound-sign>
<

>  <value-observed>
20

$$$$
>  <test-smiles>
Nc1nc2ncc(CNc3ccc(C(=O)N[C@@H](CCC(=O)NCCCCCCC(=O)Nc4cc(-c5cccs5)ccc4N)C(=O)O)cc3)nc2c(=O)[nH]1

>  <bound-sign>
<

>  <value-observed>
20

$$$$
>  <test-smiles>
Nc1nc2ncc(CNc3ccc(C(=O)N[C@@H](CCC(=O)NCCCC(=O)NO)C(=O)O)cc3)nc2c(=O)[nH]1

>  <bound-sign>
=

>  <value-observed>
40

$$$$
>  <test-smiles>
Nc1nc2ncc(CNc3ccc(C(=O)NCCCCCCCCCC(=O)NO)cc3)nc2c(=O)[nH]1

>  <bound-sign>
=

>  <value-observed>
40

$$$$
>  <test-smiles>
Nc1nc2ncc(CNc3ccc(C(=O)NCCCC(=O)NO)cc3)nc2c(=O)[nH]1

>  <bound-sign>
=

>  <value-observed>
25

$$$$

###

# Tested on: KB
# experiment: Cytotoxicity against human KB cells at 100 uM after 72 hrs by MTS assay
# Type: functional

>  <test-smiles>
Nc1nc2ncc(CNc3ccc(C(=O)N[C@@H](CCC(=O)NCCCCCCCC(=O)NO)C(=O)O)cc3)nc2c(=O)[nH]1

>  <bound-sign>
<

>  <inhibition at 100 µM [%]>
20

$$$$
>  <test-smiles>
Nc1nc2ncc(CNc3ccc(C(=O)NCCCC(=O)NO)cc3)nc2c(=O)[nH]1

>  <bound-sign>
<

>  <inhibition at 100 µM [%]>
20

$$$$
>  <test-smiles>
Nc1nc2ncc(CNc3ccc(C(=O)NCCCCC(=O)NO)cc3)nc2c(=O)[nH]1

>  <bound-sign>
<

>  <inhibition at 100 µM [%]>
20

$$$$
>  <test-smiles>
Nc1nc2ncc(CNc3ccc(C(=O)NCCCCCCCCCC(=O)NO)cc3)nc2c(=O)[nH]1

>  <bound-sign>
=

>  <inhibition at 100 µM [%]>
47

$$$$
>  <test-smiles>
Nc1nc2ncc(CNc3ccc(C(=O)NCCCCCC(=O)NO)cc3)nc2c(=O)[nH]1

>  <bound-sign>
=

>  <inhibition at 100 µM [%]>
25

$$$$
>  <test-smiles>
Nc1nc2ncc(CNc3ccc(C(=O)N[C@@H](CCC(=O)NCCCCCCC(=O)NO)C(=O)O)cc3)nc2c(=O)[nH]1

>  <bound-sign>
<

>  <inhibition at 100 µM [%]>
20

$$$$
>  <test-smiles>
Nc1nc2ncc(CNc3ccc(C(=O)NCCCCCCCCC(=O)NO)cc3)nc2c(=O)[nH]1

>  <bound-sign>
=

>  <inhibition at 100 µM [%]>
33

$$$$
